tgt: Cytochrome P450 2C19 (Homo sapiens)
Sequence (P33261 whole entry): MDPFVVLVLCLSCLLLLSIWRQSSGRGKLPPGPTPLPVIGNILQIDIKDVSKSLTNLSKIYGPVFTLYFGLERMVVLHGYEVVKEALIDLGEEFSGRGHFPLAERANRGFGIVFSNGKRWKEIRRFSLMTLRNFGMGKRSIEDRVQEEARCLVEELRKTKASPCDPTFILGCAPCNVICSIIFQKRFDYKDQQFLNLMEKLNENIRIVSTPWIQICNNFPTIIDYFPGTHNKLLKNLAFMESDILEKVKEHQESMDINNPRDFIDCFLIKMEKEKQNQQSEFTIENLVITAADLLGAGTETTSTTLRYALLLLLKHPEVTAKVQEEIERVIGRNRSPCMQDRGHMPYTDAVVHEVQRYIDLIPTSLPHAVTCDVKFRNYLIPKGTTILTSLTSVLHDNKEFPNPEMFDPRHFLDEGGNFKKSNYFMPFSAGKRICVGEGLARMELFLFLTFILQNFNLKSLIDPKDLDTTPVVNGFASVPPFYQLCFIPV
pIC50: −log10 of the molar value.
measured.parameter: pIC50

Consider the compound "Cc1ccc2[nH]c(C(=O)N3CCC(CC(C)(C)O)CC3)cc2c1" and give its measured pIC50. < 4.60

====

procedure.details: Plasma concentration in ICR mouse at 30 mg/kg, po after 1 hr by HPLC analysis
Format: ADME, organism-based
Set-up: dose 30 mg/kg, route oral
measured.parameter: concentration at 1 h (nM)
Output spec: scalar in nM, unitless text.

Which concentration at 1 h is reported for this compound? "Cc1ccc2[nH]c(C(=O)N3CCC(CC(C)(C)O)CC3)cc2c1" 10900

How about "CC(C)(O)CC1CCN(C(=O)c2cc3ccccc3[nH]2)CC1" ? 2610

====

tgt: Aldo-keto reductase family 1 member C3 (Homo sapiens)
Sequence (P42330 whole entry): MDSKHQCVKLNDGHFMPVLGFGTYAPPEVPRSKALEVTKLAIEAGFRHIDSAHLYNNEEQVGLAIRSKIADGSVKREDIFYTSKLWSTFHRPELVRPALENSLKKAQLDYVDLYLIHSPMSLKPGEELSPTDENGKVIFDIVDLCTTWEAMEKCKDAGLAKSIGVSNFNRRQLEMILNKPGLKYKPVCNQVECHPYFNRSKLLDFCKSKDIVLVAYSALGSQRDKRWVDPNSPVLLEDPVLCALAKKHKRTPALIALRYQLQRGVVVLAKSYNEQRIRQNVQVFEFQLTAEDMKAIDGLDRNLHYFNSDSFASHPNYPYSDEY
procedure.details: Inhibition of human 17beta-HSD5 expressed in HEK293 cells using androstenedione as substrate assessed as testosterone synthesis after 4 hrs
Type: cell-based
Provide the reported pIC50 of each item.
Just so you know, pIC50 here is -log10 of the concentration in molar units; reply with that number alone.

Given "O=C(c1cc2ccccc2[nH]1)N1CC(CCO)C1" , state its recorded pIC50. 6.85

Now give it for "COCCC1CCN(C(=O)c2cc3ccccc3[nH]2)CC1" too. 7.48

Would you kindly repeat that for O=C(c1cc2ccccc2[nH]1)N1CCC(CCO)C1 (configuration not stated) ? 5.96

Cool, now "Cc1ccc2[nH]c(C(=O)N3CCC(CO)CC3)cc2c1" 6.10

// repeat for "CC(=O)CC1CCN(C(=O)c2cc3ccccc3[nH]2)CC1" and report 7.89

Then "Cc1ccc2[nH]c(C(=O)N3CCC(CCCO)CC3)cc2c1" ? 6.80

Please do the same for "Cc1ccc2[nH]c(C(=O)N3CC=CCC3)cc2c1" as well. 5.55

Proceed to "O=C(c1cc2ccccc2[nH]1)N1CCC(CCO)CC1" 8.35

Now the same for "O=C(NCCCCCO)c1cc2ccccc2[nH]1" 5.92

O=C(c1cc2ccccc2[nH]1)N1CCCCC1CCO (configuration not stated) , same question. 6.64

What about "Cc1ccc2[nH]c(C(=O)N3CCN(CCO)CC3)cc2c1" ? 6.11

====

procedure.details: AUC (0 to 24 hrs) in Sprague-Dawley rat at 1 mg/kg, iv
Format: ADME, organism-based
Design: time < 24 hr, dose 1 mg/kg, route intravenous
condition.notes: plasma
measured.parameter: AUC(0-t) at 24 h (ng·h/mL)
Provide only the numeric value, understood in ng·h/mL.

Requested field: AUC(0-t) at 24 h. Item: "Cc1ccc2[nH]c(C(=O)N3CCC(CC(C)(C)O)CC3)cc2c1" 395

====

procedure.details: Solubility of the compound at pH 6.8
Type: physicochemical
condition.notes: buffer
Field: solubility. Provide a value for each of the compounds that follow.

Form field: reported solubility of "Cc1ccc2[nH]c(C(=O)N3CCC(CCO)CC3)cc2c1" > 100 µM

# repeat for "Cc1ccc2[nH]c(C(=O)N3CCC(CC(C)(C)O)CC3)cc2c1" > 100 µM

For "CC(C)(O)CC1CCN(C(=O)c2cc3ccccc3[nH]2)CC1" then? > 100 µM

====

procedure.details: Cmax in Sprague-Dawley rat at 1 mg/kg, po
Type: ADME, organism-based
Design: dose 1 mg/kg, route oral
condition.notes: in vivo
measured.parameter: Cmax (µg/mL)
# output: bare number, implied unit µg/mL

For "Cc1ccc2[nH]c(C(=O)N3CCC(CC(C)(C)O)CC3)cc2c1" , what is its reported Cmax? 0.18

Source: ChEMBL document CHEMBL2413071
